Experiment: Cytotoxicity test, MTT/formazan assay
Assay type: cell-based, monkey
Conditions: monkey, LLC-MK2 monkey kidney epithelial cells; LLC-MK2 cells, 72 h, MTT/formazan
ENDPOINT: CC50 at 72 h (µg/mL)
Give a bare numeral; the unit µg/mL is implied.

>  <COMPOUND>
OC(c1ccc(F)cc1)C1CCN(Cc2ccc(Br)cc2)CC1 (centres unmarked)

>  <CC50 at 72 h (µg/mL)>
188

$$$$
>  <COMPOUND>
OC(c1ccc(F)cc1)C1CCN(Cc2ccc(Cl)cc2)CC1 (centres unmarked)

>  <CC50 at 72 h (µg/mL)>
250

$$$$
>  <COMPOUND>
Cc1ccc(CN2CCC(C(O)c3ccc(F)cc3)CC2)cc1 (centres unmarked)

>  <CC50 at 72 h (µg/mL)>
188

$$$$

(Q) Look up CC50 at 72 h: "O=C(c1ccc(F)cc1)C1CCN(Cc2ccc(Cl)cc2)CC1"
(A) 62.5
